system: K4 kissing-loop RNA reporter; assay: apparent KD of K4 kissing-loop reporter; higher = weaker reporter binding; conditions: Eterna round: R107; input ligand: FMN 200 uM;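 note: bound reporter read as fluorescence of individual clusters on recovered sequencing chips by microscopy, with normalized cluster intensities fitted with a binding model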
Observed property: apparent KD of K4 kissing-loop reporter (nM)
// note: answer is a bare numeric in nM

Input line: Field request: apparent KD of K4 kissing-loop reporter | item: GCGCGUCAUGUCAGCGGUGACACUGUCGAUACCAGCGCCGAAAGGCGCCCUUGGCAGCGACGUGCUGGAGUGAUGUUCCAGCGUG [#2 Exclusion - Theophylline A Attempt #25 (HarryS)]
Output line: 197

Input line: Field request: apparent KD of K4 kissing-loop reporter | item: AGAUUCGACACGGCCGCCACUCGUGGAUCUUGGUUGAGAGAUGAAAUAGAGUGAUGUUCUAAUACGAGGACCGGGUGUUGAGUCU [KL-SSTryp-B23]
Output line: 221

Input line: Field request: apparent KD of K4 kissing-loop reporter | item: GUAUCGCUAGGAGGAUAUGUCGUUUUUCAUAGCAAUGGCUGUGCGGAGUGAUGUUCCGAUUUACCGGCAGAAGGCCUAGUGAUAC [FMN B 28]
Output line: 118

New cases:
Input line: Field request: apparent KD of K4 kissing-loop reporter | item: GCUAUGGUAGGAAGGAGCGCUUAUUUAUUUUUAAGAGUGAUGUUCGAUAGUAGAUAUUUAAAGCAGGUAGGUCGCCUACUAUAGC [Arginine B K4 13]
Output line: 122

Each recorded value in this set is attributed to the supplement of paper PMC9170038.
